Taken from a melting point compilation (Tetko et al.; mined from patent text by program, amines drawn as free bases though some values may be those of a salt).

metric_name: melting point

{"chemical_string": "N#CSCC(=O)N1CCCCC1", "melting point": "78 to 79 °C"}
{"chemical_string": "CC1(C)CCCc2cc3c(cc21)C(C)(C)CCC3(C)C", "melting point": "94 to 95 °C"}
{"chemical_string": "O=c1[nH]nc(Cc2ccncc2)c2c1CCCC2", "melting point": "193 to 194 °C"}
{"chemical_string": "CCCc1c(OCCCCCCc2ccc3cc(OC)c(OC)cc3c2)ccc(C(=O)O)c1O", "melting point": "102 to 104 °C"}
{"chemical_string": "Brc1cn2c(Br)cnc2c(NCc2ccco2)n1", "melting point": "143 °C"}
{"chemical_string": "OCCCc1cnoc1-c1ccc(F)c(Br)c1", "melting point": "57 to 58 °C"}

melting point for O=C(CNc1ccccc1F)Nc1ccc([N+](=O)[O-])cc1 is 150 to 153 °C
